Measured values drawn from patent US20240316042A1 for this set.

experiment: Phase 1 open-label study in pediatric pcJIA patients: pharmacokinetics at steady state (Day 7); assay type: in vivo, human; details: human, plasma, oral, pcJIA Group 3: 6 to <12 years, low dose, BID solution; Day 7; read-out: AUCtau, geometric mean
measured_quantity: AUC (ng·h/mL)
One number for each entry, in ng·h/mL.

The molecule listed as CC[C@@H]1CN(C(=O)NCC(F)(F)F)C[C@@H]1c1cnc2cnc3[nH]ccc3n12 [upadacitinib] has a reported AUC of 198

---

assay: Solubility of upadacitinib in different aqueous media at 37° C.; type: physicochemical; details: 50 mM carbonate buffer, pH 9.11
measured_quantity: solubility (µg/mL)
Answers are plain numbers, in µg/mL.

The compound listed as `CC[C@@H]1CN(C(=O)NCC(F)(F)F)C[C@@H]1c1cnc2cnc3[nH]ccc3n12` has a reported solubility of 199

---

assay: Phase 1 open-label study in pediatric subjects with severe atopic dermatitis: pharmacokinetics on Day 7; assay type: in vivo, human; details: human, plasma, oral, AD Cohort 2: 6 to <12 years, high dose; Day 7 (Example 4); read-out: Geometric mean Cmax at steady-state
measured_quantity: Cmax (ng/mL)
One number for each entry, in ng/mL.

The molecule listed as CC[C@@H]1CN(C(=O)NCC(F)(F)F)C[C@@H]1c1cnc2cnc3[nH]ccc3n12 [upadacitinib] has a reported Cmax of 95.5
